System: Salmonella enteritidis IID 604
method_description: MIC, in vitro antibacterial activity (standard strains)
Assay type: cell-based
measurement_conditions: Salmonella enterica; 10^6 cells/ml; Gram -; read-out: MIC
recorded_metric: MIC (µg/mL)
State the answer as a number, implicitly in µg/mL.

>  <compound>
CCn1cc(C(=O)O)c(=O)c2cc(F)c(N3CCNCC3)cc21 [NFLX, norfloxacin, reference compound]

>  <MIC (µg/mL)>
0.05

$$$$
>  <compound>
CCNCC1CN(c2c(F)cc3c(=O)c(C(=O)O)cn(C4CC4)c3c2Cl)CC1C (stereo not drawn) [Example 14]

>  <MIC (µg/mL)>
0.2

$$$$
>  <compound>
C[C@@H]1CN(c2c(F)cc3c(=O)c(C(=O)O)cn(C4CC4)c3c2Br)C[C@H]1N (relative stereo) [Example 32]

>  <MIC (µg/mL)>
0.05

$$$$
>  <compound>
CCNCC1CN(c2c(F)cc3c(=O)c(C(=O)O)cn(C4CC4)c3c2F)CC1C (stereo not drawn) [Example 15]

>  <MIC (µg/mL)>
0.2

$$$$
>  <compound>
CC1CN(c2c(F)cc3c(=O)c(C(=O)O)cn(C4CC4)c3c2Cl)CC1N (stereo not drawn) [Example 7]

>  <MIC (µg/mL)>
0.025

$$$$

Record request: MIC value, item C[C@@H]1CN(c2c(F)cc3c(=O)c(C(=O)O)cn(C4CC4)c3c2F)C[C@H]1N (relative stereo) [Example 18]
0.025
